# Tested on: Escherichia coli TOP10;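 note: peptides expressed intracellularly from a pBAD plasmid library in pooled LB shake-flask culture, induced with 0.3% L-arabinose, DNA abundance read by NGS, three biological replicates, DESeq2 with apeglm shrinkage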
# assayExplanation: shrunken log2 fold change of peptide-encoding DNA abundance (4.5 h post-induction vs induction); higher = less antimicrobial activity (less host growth inhibition)
# conditionDetails: time post-induction: 4.5 h; library: site-saturation at positions 5, 18, 19, 20
Binning scheme for shrunken log2 fold change: low: < -0.09; intermediate: ≥ -0.09 and < 0.02; high: ≥ 0.02

RRIRSRPPRLPRPRPRPLLGPRP    high
RRIRLRPPRLPRPRPRPEYQPRP    intermediate
RRIRGRPPRLPRPRPRPNQMPRP    high
RRIRCRPPRLPRPRPRPQVWPRP    intermediate
RRIRDRPPRLPRPRPRPGSDPRP    high
RRIRGRPPRLPRPRPRPLVLPRP    high
RRIRCRPPRLPRPRPRPFSKPRP    low
RRIRFRPPRLPRPRPRPSGGPRP    low
RRIRWRPPRLPRPRPRPDVHPRP    intermediate
RRIRWRPPRLPRPRPRPAAHPRP    high

Which category fits this record: RRIRNRPPRLPRPRPRPHFLPRP
low

Same lookup for RRIRQRPPRLPRPRPRPYNAPRP , please.
intermediate

Same lookup for RRIRIRPPRLPRPRPRPHKIPRP , please.
low
